Could you please report measured pEC50 for the items listed next?
- TARGET OR TEST SYSTEM: human E3 ligase component cereblon (CRBN) (Homo sapiens (Human), UniProt Q96SW2)
- Sequence (Q96SW2 whole entry): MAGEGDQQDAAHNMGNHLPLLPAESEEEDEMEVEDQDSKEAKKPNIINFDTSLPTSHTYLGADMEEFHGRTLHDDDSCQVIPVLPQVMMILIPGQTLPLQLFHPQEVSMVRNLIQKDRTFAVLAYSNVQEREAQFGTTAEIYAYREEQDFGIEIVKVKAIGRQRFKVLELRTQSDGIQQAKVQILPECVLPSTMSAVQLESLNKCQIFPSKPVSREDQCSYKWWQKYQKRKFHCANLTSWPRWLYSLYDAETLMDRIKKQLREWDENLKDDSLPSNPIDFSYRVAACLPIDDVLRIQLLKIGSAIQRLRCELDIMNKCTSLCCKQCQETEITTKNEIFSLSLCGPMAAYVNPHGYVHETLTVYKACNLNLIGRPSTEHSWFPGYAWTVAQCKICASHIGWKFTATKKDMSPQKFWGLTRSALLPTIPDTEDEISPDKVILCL
- Sequence (Q16531 whole entry partner): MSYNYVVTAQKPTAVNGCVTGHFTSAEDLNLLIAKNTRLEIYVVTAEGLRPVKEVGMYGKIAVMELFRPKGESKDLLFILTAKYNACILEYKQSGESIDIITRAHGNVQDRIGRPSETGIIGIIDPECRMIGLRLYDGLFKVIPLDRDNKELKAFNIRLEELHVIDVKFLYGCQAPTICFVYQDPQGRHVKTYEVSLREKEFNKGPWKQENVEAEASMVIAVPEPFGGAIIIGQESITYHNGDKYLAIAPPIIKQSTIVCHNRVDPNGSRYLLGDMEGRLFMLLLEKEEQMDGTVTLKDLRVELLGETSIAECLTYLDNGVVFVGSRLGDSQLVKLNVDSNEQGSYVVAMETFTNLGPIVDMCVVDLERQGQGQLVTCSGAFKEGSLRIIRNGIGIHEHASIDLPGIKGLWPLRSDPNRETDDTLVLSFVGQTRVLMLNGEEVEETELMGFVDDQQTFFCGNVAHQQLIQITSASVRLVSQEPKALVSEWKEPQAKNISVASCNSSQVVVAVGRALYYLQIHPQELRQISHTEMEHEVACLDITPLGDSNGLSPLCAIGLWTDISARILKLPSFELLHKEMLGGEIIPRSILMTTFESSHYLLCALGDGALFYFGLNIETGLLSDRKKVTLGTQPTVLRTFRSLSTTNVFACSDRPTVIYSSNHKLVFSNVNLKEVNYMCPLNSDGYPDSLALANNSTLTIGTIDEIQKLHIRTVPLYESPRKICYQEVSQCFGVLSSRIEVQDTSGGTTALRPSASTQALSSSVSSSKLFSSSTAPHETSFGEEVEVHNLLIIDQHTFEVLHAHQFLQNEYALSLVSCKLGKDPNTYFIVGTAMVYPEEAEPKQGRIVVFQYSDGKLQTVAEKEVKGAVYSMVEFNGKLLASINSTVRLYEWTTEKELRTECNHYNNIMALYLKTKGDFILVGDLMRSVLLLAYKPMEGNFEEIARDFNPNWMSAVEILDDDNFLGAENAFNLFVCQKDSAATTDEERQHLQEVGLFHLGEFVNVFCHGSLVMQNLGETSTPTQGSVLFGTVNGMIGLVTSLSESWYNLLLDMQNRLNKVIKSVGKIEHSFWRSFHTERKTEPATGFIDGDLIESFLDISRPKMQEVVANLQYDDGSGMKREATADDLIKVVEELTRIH
- TEST: Cereblon (CRBN) target engagement, NanoBRET TE Intracellular E3 Ligase Assay in transfected HEK-293T cells
- TEST SETTINGS: read-out: CRBN Binding EC50
Numbers only, as −log10 of the molar value.

- COMPOUND: "O=C1CCC(N2Cc3cc(O[C@H]4CCCC[C@@H]4N4CC(c5ccc(OC(F)(F)F)cc5)C4)ccc3C2=O)C(=O)N1 (mixture of isomers) [Compound 60]"
  pEC50: 7.82
- COMPOUND: "N#Cc1ccc(C2CN([C@H]3CCCC[C@@H]3Oc3ccc4c(c3)CN(C3CCC(=O)NC3=O)C4=O)C2)c(Cl)c1 (single isomer, unassigned) [Compound 48]"
  pEC50: 7.35
- COMPOUND: "O=C1CCC(N2Cc3cc(O[C@H]4CCCC[C@@H]4N4CC(c5cccc(C(F)(F)F)c5)C4)ccc3C2=O)C(=O)N1 (mixture of isomers) [Compound 62]"
  pEC50: 7.34
- COMPOUND: "O=C1CCC(N2Cc3cc(O[C@H]4CCCC[C@@H]4N4CC(c5ccc(C(F)(F)F)cc5)C4)ccc3C2=O)C(=O)N1 (stereo partly drawn) [Compound 58]"
  pEC50: 7.15
- COMPOUND: "N#Cc1ccccc1C1CN([C@H]2CCCC[C@@H]2Oc2ccc3c(c2)CN(C2CCC(=O)NC2=O)C3=O)C1 (mixture of isomers) [Compound 108]"
  pEC50: 7.24

Attention now turns to another entry.
## Input Need pEC50 of O=C1CCC(N2Cc3cc(O[C@@H]4CCCC[C@H]4N4CCC4c4ccccc4)ccc3C2=O)C(=O)N1 (stereo partly drawn) [Compound 54] , thanks.
## Output 7.05
